Where these numbers come from: patent US20170173151A1

Recorded Maximal binding (MFI at 10 µg/mL) for the following binders
# TARGET DESC: human CD74, naturally expressed on cells (Raji, Daudi, M4A4, NCI-H747 cells; human tonsil tissue) (human) (UniProt P04233)
# ASSAY PROCEDURE: FACS on Daudi cells, 10 µg/mL; mean of three experiments

>  <BINDER>
HuMab-CD74-011-mcMMAF (antibody, IgG1, V domains shown, drug-linker mcMMAF alkylated to the cysteines of the reduced antibody (DAR 3.9 by HIC), Antibody-drug conjugate of HuMab-CD74-011 (IgG1,kappa)) VH: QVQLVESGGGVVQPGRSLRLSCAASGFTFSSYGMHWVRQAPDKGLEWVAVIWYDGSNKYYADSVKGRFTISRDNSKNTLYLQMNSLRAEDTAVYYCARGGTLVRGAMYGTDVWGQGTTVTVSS VL: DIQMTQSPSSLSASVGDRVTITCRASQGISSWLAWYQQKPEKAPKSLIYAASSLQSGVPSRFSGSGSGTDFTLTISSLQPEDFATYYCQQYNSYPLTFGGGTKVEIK

>  <Maximal binding (MFI at 10 µg/mL), MFI>
5330

$$$$
>  <BINDER>
HuMab-CD74-005-vcMMAE (antibody, IgG1, V domains shown, drug-linker vcMMAE alkylated to the cysteines of the reduced antibody (DAR 3.9-4.0), Antibody-drug conjugate of HuMab-CD74-005 (IgG1,kappa); also called vcMMAE-conjugate of HuMab-CD74-005) VH: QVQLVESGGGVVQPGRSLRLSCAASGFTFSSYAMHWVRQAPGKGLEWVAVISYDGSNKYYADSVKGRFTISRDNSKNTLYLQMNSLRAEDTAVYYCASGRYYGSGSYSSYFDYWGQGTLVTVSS VL: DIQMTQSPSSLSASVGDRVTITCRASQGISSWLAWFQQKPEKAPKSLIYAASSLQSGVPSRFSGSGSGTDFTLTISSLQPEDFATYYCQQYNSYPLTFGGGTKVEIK

>  <Maximal binding (MFI at 10 µg/mL), MFI>
2860

$$$$
>  <BINDER>
HuMab-CD74-011-vcMMAE (antibody, IgG1, V domains shown, drug-linker vcMMAE alkylated to the cysteines of the reduced antibody (DAR 3.8-3.9), Antibody-drug conjugate of HuMab-CD74-011 (IgG1,kappa); also called vcMMAE-conjugated HuMab-CD74-011) VH: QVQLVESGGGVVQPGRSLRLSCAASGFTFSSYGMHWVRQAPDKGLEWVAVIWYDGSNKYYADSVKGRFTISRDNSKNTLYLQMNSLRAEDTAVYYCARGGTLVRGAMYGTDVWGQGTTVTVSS VL: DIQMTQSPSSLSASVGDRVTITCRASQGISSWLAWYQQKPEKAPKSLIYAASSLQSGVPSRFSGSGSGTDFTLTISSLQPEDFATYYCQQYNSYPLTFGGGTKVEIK

>  <Maximal binding (MFI at 10 µg/mL), MFI>
3790

$$$$
>  <BINDER>
HuMab-CD74-005-mcMMAF (antibody, IgG1, V domains shown, drug-linker mcMMAF alkylated to the cysteines of the reduced antibody (DAR 3.9-4.0), Antibody-drug conjugate of HuMab-CD74-005 (IgG1,kappa); also called mcMMAF-conjugate of HuMab-CD74-005) VH: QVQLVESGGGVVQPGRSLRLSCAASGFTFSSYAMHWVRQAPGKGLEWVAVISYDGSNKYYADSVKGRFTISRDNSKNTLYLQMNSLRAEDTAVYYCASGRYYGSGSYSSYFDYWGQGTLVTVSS VL: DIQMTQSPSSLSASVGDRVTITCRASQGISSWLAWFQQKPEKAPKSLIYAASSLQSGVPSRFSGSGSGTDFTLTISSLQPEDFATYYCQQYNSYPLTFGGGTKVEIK

>  <Maximal binding (MFI at 10 µg/mL), MFI>
2530

$$$$
